# MIC annotations
Tested on: K. pneumoniae MP-648
Assay: MIC determination by CLSI broth dilution, K. pneumoniae MP-648
Format: cell-based
Conditions: Klebsiella pneumoniae, MP648, CLSI broth dilution; strain MP-648

Look up MIC of CCN1C[C@H](C)C[C@@](C)(OC)[C@H](O[C@@H]2O[C@H](C)C[C@H](N(C)C)[C@H]2O)[C@@H](C)C(=O)C(C)(C)C(=O)OC[C@H]1[C@H](O)CCN(C)CCO [Compound 225] and report it.
4 to 32 µg/mL

Write down MIC measured for item CO[C@]1(C)C[C@@H](C)CN(C)[C@H](CC2CCN(C(C)C)CC2)COC(=O)C(C)(C)C(=O)[C@H](C)[C@H]1O[C@@H]1O[C@H](C)C[C@H](N(C)C)[C@H]1O [Compound 52]
4 to 32 µg/mL

Please list MIC recorded for the compound CCN1C[C@H](C)C[C@@](C)(OC)[C@H](O[C@@H]2O[C@H](C)C[C@H](N(C)C)[C@H]2O)[C@@H](C)C(=O)C(C)(C)C(=O)OC[C@@H]1CCCN1CCN(c2ccncc2)CC1 [Compound 181]
> 32 µg/mL

Specify reported MIC for the compound shown: CCN(C)[C@H]1C[C@H](C[C@]2(C)COC(=O)C(C)(C)C(=O)[C@H](C)[C@@H](O[C@@H]3O[C@H](C)C[C@H](N(C)C)[C@H]3O)[C@](C)(OC)C[C@@H](C)CN2C)C1 [Compound 196]
> 32 µg/mL

State, in one line, measured MIC of CO[C@]1(C)C[C@@H](C)CN(C)[C@](C)(C[C@H]2C[C@H](N(C)CC3CC3)C2)COC(=O)C(C)(C)C(=O)[C@H](C)[C@H]1O[C@@H]1O[C@H](C)C[C@H](N(C)C)[C@H]1O [Compound 197]
4 to 32 µg/mL

Please list MIC recorded for the compound CO[C@]1(C)C[C@@H](C)CN(C)[C@H]([C@](C)(O)CCN(C)CCO)COC(=O)C(C)(C)C(=O)[C@H](C)[C@H]1O[C@@H]1O[C@H](C)C[C@H](N(C)C)[C@H]1O [Compound 228]
< 4 µg/mL

====

Tested on: K. pneumoniae MP-546
Test: MIC determination by CLSI broth dilution, K. pneumoniae MP-546
Type: cell-based
Settings: Klebsiella pneumoniae, MP546, CLSI broth dilution; strain MP-546
As shown below, each of these molecules has a reported MIC value.

The examples below pair each entry with its known result.
| compound.structure.string | target | MIC |
| --- | --- | --- |
| CO[C@]1(C)C[C@@H](C)CN(C)[C@@H]([C@H](O)C2CCN(CC3CCCCC3)CC2)COC(=O)C(C)(C)C(=O)[C@H](C)[C@H]1O[C@@H]1O[C@H](C)C[C@H](N(C)C)[C@H]1O | K. pneumoniae MP-546 | 4 to 32 µg/mL |
| CO[C@]1(C)C[C@@H](C)CN(C)[C@H](CC2CCN(CC(C)(C)C)CC2)COC(=O)C(C)(C)C(=O)[C@H](C)[C@H]1O[C@@H]1O[C@H](C)C[C@H](N(C)C)[C@H]1O | K. pneumoniae MP-546 | < 4 µg/mL |
| CCCCCCCN1CCC(C[C@@H]2COC(=O)[C@@](C)(Cl)C(=O)[C@H](C)[C@@H](O[C@@H]3O[C@H](C)C[C@H](N(C)C)[C@H]3O)[C@](C)(OC)C[C@@H](C)CN2C)CC1 | K. pneumoniae MP-546 | < 4 µg/mL |
| CO[C@]1(C)C[C@@H](C)CN(C)[C@@H](CCCN(C)C)COC(=O)C(C)(C)C(=O)[C@H](C)[C@H]1O[C@@H]1O[C@H](C)C[C@H](N(C)C)[C@H]1O | K. pneumoniae MP-546 | < 4 µg/mL |
| CO[C@]1(C)C[C@@H](C)CN(C)[C@H](C=C2CCN(CC3CC3)CC2)COC(=O)C(C)(C)C(=O)[C@H](C)[C@H]1O[C@@H]1O[C@H](C)C[C@H](N(C)C)[C@H]1O | K. pneumoniae MP-546 | < 4 µg/mL |

Specify the recorded MIC for CO[C@]1(C)C[C@@H](C)CN[C@@H](CN(C)C)COC(=O)C(C)(C)C(=O)[C@H](C)[C@H]1O[C@@H]1O[C@H](C)C[C@H](N(C)C)[C@H]1O , system: K. pneumoniae MP-546.
> 32 µg/mL

// output MIC; input CO[C@]1(C)C[C@@H](C)CN(C)[C@@H]([C@H](O)C2CCN(CC3CC3)CC2)COC(=O)C(C)(C)C(=O)[C@H](C)[C@H]1O[C@@H]1O[C@H](C)C[C@H](N(C)C)[C@H]1O ; system K. pneumoniae MP-546
4 to 32 µg/mL

Given CO[C@]1(C)C[C@@H](C)CN(C)[C@@H](CN2CCN(S(=O)(=O)c3ccc(C)cc3)CC2)[C@H](C)OC(=O)C(C)(C)C(=O)[C@H](C)[C@H]1O[C@@H]1O[C@H](C)C[C@H](N(C)C)[C@H]1O , report its MIC on K. pneumoniae MP-546.
> 32 µg/mL

Give MIC; test system K. pneumoniae MP-546; molecule CCCCCCCN1CCC(C[C@H]2COC(=O)C(C)(C)C(=O)[C@H](C)[C@@H](O[C@@H]3O[C@H](C)C[C@H](N(C)C)[C@H]3O)[C@](C)(OC)C[C@@H](C)CN2C)CC1
4 to 32 µg/mL

Provide the reported MIC (system: K. pneumoniae MP-546) for CCCCCCCN1CCC(C[C@@H]2COC(=O)C(C)(C)C(=O)[C@H](C)[C@@H](O[C@@H]3O[C@H](C)C[C@H](N(C)C)[C@H]3O)[C@](C)(OC)C[C@@H](C)CN2C)CC1
< 4 µg/mL

Determine reported MIC for CCCN1C[C@H](C)C[C@@](C)(OC)[C@H](O[C@@H]2O[C@H](C)C[C@H](N(C)C)[C@H]2O)[C@@H](C)C(=O)C(C)(C)C(=O)OC[C@@H]1CCCN(C)C(C)C ; test system: K. pneumoniae MP-546.
< 4 µg/mL

====

Test system: K. pneumoniae MP-648
Assay: MIC determination by CLSI broth dilution, K. pneumoniae MP-648
Format: cell-based
Settings: Klebsiella pneumoniae, MP648, CLSI broth dilution; strain MP-648
Documented MIC across a set of molecules

Worked cases, MIC given:
| compound.structure.string | result |
| --- | --- |
| CO[C@]1(C)C[C@@H](C)CN(C)[C@H](/C=C/CN(C)Cc2ccc(F)cc2)COC(=O)C(C)(C)C(=O)[C@H](C)[C@H]1O[C@@H]1O[C@H](C)C[C@H](N(C)C)[C@H]1O | 4 to 32 µg/mL |
| CCCCCCCN1CCC(C[C@@H]2COC(=O)[C@@](C)(Cl)C(=O)[C@H](C)[C@@H](O[C@@H]3O[C@H](C)C[C@H](N(C)C)[C@H]3O)[C@](C)(OC)C[C@@H](C)CN2C)CC1 | 4 to 32 µg/mL |
| CO[C@]1(C)C[C@@H](C)CN(CC(C)C)[C@@H](CCCN2CCCCC2)COC(=O)C(C)(C)C(=O)[C@H](C)[C@H]1O[C@@H]1O[C@H](C)C[C@H](N(C)C)[C@H]1O | 4 to 32 µg/mL |
| CO[C@]1(C)C[C@@H](C)CN(C)[C@H](CC2CCN(C3CC3)CC2)COC(=O)C(C)(C)C(=O)[C@H](C)[C@H]1O[C@@H]1O[C@H](C)C[C@H](N(C)C)[C@H]1O | 4 to 32 µg/mL |

Shift focus to the following entry.
Assign MIC to the following record: CO[C@]1(C)C[C@@H](C)CN(C)[C@H](CC2CCN(CC3CCCCC3)CC2)COC(=O)C(C)(C)C(=O)[C@H](C)[C@H]1O[C@@H]1O[C@H](C)C[C@H](N(C)C)[C@H]1O
< 4 µg/mL
